molecular target: EGFR del746-750 T790M (Homo sapiens, UniProt P00533, DEL746-750/T790M); assay: EGFR del746-750 T790M biochemical assay (Caliper mobility shift); settings: 5 μM ATP, 30 min, room temperature; apparent Ki (Morrison) converted by Cheng-Prusoff, Km of ATP 2.1 μM; read-out: EGFR(T790M/d746-750) Ki
Sequence (P00533 with tags, fused parts or gaps DEL746-750/T790M limits assumed): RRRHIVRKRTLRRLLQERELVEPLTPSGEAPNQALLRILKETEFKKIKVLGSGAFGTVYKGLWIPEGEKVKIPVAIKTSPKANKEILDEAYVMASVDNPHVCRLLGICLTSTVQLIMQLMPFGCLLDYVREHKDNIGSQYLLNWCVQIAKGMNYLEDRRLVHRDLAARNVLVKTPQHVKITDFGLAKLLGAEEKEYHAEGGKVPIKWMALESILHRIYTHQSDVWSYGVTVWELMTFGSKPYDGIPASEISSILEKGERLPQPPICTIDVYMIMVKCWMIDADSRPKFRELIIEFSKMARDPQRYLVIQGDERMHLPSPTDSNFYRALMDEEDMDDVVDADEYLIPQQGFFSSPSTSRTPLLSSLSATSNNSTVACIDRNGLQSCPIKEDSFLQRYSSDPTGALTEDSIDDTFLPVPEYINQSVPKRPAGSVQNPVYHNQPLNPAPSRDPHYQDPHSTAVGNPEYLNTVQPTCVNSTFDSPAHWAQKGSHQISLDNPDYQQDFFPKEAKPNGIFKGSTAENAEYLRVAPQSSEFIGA
PROPERTY_LABEL: pKi
Recall that pKi is obtained by taking minus log10 of the concentration measured in molar.

Req: Please look up its pKi: Cc1nc2cnc(Nc3ccnc(N4CC[C@@H](O)C[C@H]4C)n3)cc2n1C(C)C
Resp: 7.30

Req: Given the molecule COC1CCN(c2nccc(Nc3cc4c(cn3)nc(C(F)F)n4C(C)C)n2)CC1 , what is its reported pKi?
Resp: 6.84

Req: // pKi lookup, key: Cc1c(-c2cn(C(C)C)c3cc(Nc4ccnc(-c5cnn(S(=O)(=O)C6CC6)c5)n4)ncc23)cnn1CCO
Resp: 8.97

Req: May I ask what pKi has been recorded for C[C@H](O)c1nc2cnc(Nc3ccnc(N4CC[C@@H](O)[C@@H](F)C4)n3)cc2n1[C@H](C)C(F)(F)F ?
Resp: 6.64

Req: May I ask what pKi has been recorded for CCC(C)n1cc(C(=O)NC2CCOCC2)c2cnc(Nc3ccnc(N4CCC(O)C(C)(C)C4)n3)cc21 (mixture of isomers) [Example 384] ?
Resp: 8.27

Req: Could you share which pKi value was measured for CC(C)n1c(CO)nc2cnc(Nc3ccnc(N4CCC(C(F)(F)F)CC4)n3)cc21 ?
Resp: 6.88

Req: May I ask what pKi has been recorded for CC[C@@H](C)n1c([C@@H](C)O)nc2cnc(Nc3ccnc(-c4cnn(S(=O)(=O)CC)c4)n3)cc21 ?
Resp: 8.63
